Give measured log10 of IC50 for each item. Keep answers brief.
test system: human prostate PC3-mm2 tumor cell line; experiment: In vitro cell culture growth assay (MTS), PC3-mm2; assay type: cell-based; conditions: Homo sapiens, PC3MM2, 72 h, MTS cell growth assay, three days after drug treatment; read-out: IC50 PC3-mm2
Values reflect log10 of reported IC50 (nM).

These recorded examples may help you get a feel for the data.
| smiles.record | log10 of IC50 |
| --- | --- |
| CC(C)c1nc(-c2ccc(NC(=O)Nc3ccc(C(=O)N4CCN(C)CC4)cc3)cc2)nc(N2CCOCC2)n1 | 1.59 |
| CN(C)CCNCCCc1nc(-c2ccc(NC(=O)Nc3ccncc3)cc2)nc(N2CCOCC2)n1 | 3.57 |
| O=C(Nc1ccccc1)Nc1ccc(-c2nc(OC3CCOCC3)nc(N3CCOCC3)n2)cc1 | 1.96 |
| NC(=O)c1ccc(NC(=O)Nc2ccc(-c3nc(N4CCOCC4)nc(N4C5CCC4COC5)n3)cc2)cc1 | 1.44 |

Quick one: give me log10 of IC50 for each item below, same order please.
1. CC(=O)c1cccc(NC(=O)Nc2ccc(-c3nc(OC4CCOCC4)nc(N4CCOCC4)n3)cc2)c1
2. CCCCc1nc(-c2ccc(NC(=O)Nc3ccc(C(=O)N4CCN(C)CC4)cc3)cc2)nc(N2CCOCC2)n1
3. CCCCc1nc(-c2ccc(NC(=O)Nc3ccc(C=O)cc3)cc2)nc(N2CCOCC2)n1
4. CCCc1nc(-c2ccc(NC(=O)Nc3ccc(N4CCN(C)CC4)cc3)cc2)nc(N2CCOCC2)n1

Result:
2.43
2.25
2.52
2.19

----------
biological target: PI3K-γ (Homo sapiens); test: PI3K-gamma fluorescence polarization assay; settings: read-out: IC50 PI3Kγ; listed as 508
assay.endpoint: pIC50
Give bare numbers, as −log10 of the molar value.

Query: Requested field: pIC50. Item: CN(C)CCNC(=O)c1ccc(NC(=O)Nc2ccc(-c3nc(C4=CCOCC4)nc(N4CCOCC4)n3)cc2)cc1
Result: 7.90

----------
target: Human mTOR (FLAG-TOR) (Homo sapiens, UniProt P42345); assay: mTOR kinase assay (DELFIA format, purified enzyme); type: biochemical; conditions: read-out: IC50 mTOR
Sequence (P42345 1360-2549 limits assumed): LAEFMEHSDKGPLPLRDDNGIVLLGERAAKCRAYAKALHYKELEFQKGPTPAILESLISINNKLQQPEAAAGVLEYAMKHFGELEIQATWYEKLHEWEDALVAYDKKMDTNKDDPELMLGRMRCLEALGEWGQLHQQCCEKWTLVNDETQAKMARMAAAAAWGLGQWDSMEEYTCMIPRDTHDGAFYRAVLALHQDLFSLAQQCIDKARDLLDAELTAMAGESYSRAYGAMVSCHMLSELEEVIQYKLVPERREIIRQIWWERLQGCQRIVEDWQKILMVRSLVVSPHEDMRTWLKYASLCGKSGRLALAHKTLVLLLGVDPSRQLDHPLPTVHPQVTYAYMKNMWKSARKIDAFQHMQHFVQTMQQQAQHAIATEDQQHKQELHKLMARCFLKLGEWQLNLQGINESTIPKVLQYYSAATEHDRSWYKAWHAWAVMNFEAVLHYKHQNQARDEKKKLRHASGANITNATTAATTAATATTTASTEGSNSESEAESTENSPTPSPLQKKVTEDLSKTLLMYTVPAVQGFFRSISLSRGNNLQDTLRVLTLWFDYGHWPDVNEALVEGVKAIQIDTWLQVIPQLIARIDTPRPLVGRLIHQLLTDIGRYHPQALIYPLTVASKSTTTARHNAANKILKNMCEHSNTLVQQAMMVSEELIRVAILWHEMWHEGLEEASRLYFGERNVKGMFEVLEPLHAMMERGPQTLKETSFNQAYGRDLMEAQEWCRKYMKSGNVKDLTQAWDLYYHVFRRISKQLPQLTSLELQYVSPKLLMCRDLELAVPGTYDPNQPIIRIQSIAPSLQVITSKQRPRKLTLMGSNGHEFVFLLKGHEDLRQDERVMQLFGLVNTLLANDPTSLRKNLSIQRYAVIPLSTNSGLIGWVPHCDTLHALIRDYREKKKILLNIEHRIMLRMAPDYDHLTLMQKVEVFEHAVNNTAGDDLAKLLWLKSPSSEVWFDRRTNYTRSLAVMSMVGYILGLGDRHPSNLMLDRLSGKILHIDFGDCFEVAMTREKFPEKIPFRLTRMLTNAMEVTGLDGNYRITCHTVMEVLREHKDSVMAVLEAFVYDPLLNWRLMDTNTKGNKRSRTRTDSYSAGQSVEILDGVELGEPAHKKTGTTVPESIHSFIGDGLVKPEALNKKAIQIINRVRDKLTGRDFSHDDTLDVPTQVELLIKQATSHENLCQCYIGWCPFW
assay.endpoint: IC50 (nM)
Numbers only, in nM.

| smiles.record | IC50, nM |
| --- | --- |
| O=C(Nc1ccc(C(=O)NCCN2CCCCC2)cc1)Nc1ccc(-c2nc(N3CCOCC3)nc(N3CCOCC3)n2)cc1 | 7 |
| CCc1nc(-c2ccc(NC(=O)Nc3ccc(C(=O)NCCN(C)C)cc3)cc2)nc(N2CCOCC2)n1 | 3 |
| CC(C)(C)OC(=O)N1CC(Nc2nc(-c3ccc(NC(=O)Nc4ccccc4)cc3)nc(N3CCOCC3)n2)C1 | 8.45 |

Now look at this entry.
Query: GET /values?readout=IC50&item= CCc1nc(-c2ccc(NC(=O)Nc3ccc(C(=O)OC)cc3)cc2)nc(N2CCOCC2)n1
Result: 47

----------
tested on: human prostate PC3-mm2 tumor cell line; test: In vitro cell culture growth assay (MTS), PC3-mm2; format: cell-based; settings: Homo sapiens, PC3MM2, 72 h, MTS cell growth assay, three days after drug treatment; read-out: IC50 PC3-mm2
// map IC50 onto a label; ranges group 1: < 80 nM; group 2: ≥ 80 nM and < 600 nM; group 3: ≥ 600 nM

| compound | subject.of.test | cat |
| --- | --- | --- |
| COCCOc1nc(-c2ccc(NC(=O)Nc3ccncc3)cc2)nc(N2CCOCC2)n1 | human prostate PC3-mm2 tumor cell line | group 2 |
| CCCCc1nc(-c2ccc(NC(=O)Nc3ccc(C(=O)Nc4ccc(N5CCN(C)CC5)cc4)cc3)cc2)nc(N2CCOCC2)n1 | human prostate PC3-mm2 tumor cell line | group 2 |

Query: Form: Item = CCc1nc(-c2ccc(NC(=O)Nc3ccc(C(=O)N(C)CCN(C)C)cc3)cc2)nc(N2CCOCC2)n1 ; Class = ?
Result: group 1

Query: Another compound: O=C(Nc1ccccc1)Nc1ccc(-c2nc(NC3CNC3)nc(N3CCOCC3)n2)cc1
Result: group 3

Query: What about this compound? CCc1nc(-c2ccc(NC(=O)Nc3ccc(C(=O)NCc4ccncc4)cc3)cc2)nc(N2CCOCC2)n1
Result: group 2

----------
molecular target: PI3K-γ (Homo sapiens, UniProt P48736); assay: PI3K-gamma fluorescence polarization assay; conditions: read-out: IC50 PI3Kγ; listed as 334
Sequence (P48736 whole entry, species assumed): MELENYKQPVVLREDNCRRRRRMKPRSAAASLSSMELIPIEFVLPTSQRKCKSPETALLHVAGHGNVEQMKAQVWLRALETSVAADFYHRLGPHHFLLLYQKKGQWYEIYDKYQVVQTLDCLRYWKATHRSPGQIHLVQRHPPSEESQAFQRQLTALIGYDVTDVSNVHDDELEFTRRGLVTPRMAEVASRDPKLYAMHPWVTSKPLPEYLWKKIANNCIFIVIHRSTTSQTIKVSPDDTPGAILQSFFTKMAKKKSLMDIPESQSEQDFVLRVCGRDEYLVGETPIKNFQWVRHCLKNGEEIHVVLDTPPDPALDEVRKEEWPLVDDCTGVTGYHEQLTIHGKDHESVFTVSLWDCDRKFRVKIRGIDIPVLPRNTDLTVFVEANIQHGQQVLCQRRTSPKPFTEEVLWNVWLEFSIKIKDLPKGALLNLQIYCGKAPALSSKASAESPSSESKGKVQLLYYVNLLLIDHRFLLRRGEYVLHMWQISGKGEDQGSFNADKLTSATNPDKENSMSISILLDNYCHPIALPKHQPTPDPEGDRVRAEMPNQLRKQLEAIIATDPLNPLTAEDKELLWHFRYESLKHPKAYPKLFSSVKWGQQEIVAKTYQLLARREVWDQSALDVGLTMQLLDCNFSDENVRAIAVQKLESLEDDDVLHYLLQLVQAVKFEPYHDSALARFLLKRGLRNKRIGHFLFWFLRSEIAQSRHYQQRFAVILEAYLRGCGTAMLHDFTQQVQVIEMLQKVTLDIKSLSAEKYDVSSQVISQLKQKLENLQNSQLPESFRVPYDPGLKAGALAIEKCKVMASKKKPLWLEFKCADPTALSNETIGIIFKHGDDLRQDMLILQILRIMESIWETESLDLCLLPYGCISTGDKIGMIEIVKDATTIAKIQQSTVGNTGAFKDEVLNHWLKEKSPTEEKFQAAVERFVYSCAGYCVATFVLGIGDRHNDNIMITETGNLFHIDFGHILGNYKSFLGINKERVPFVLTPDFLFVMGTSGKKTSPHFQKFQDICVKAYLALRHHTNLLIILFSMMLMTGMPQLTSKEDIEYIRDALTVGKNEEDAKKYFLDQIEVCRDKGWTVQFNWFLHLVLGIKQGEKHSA
assay.endpoint: pIC50
Numbers only, as −log10 of the molar value.

Query: Enter reported pIC50 observed with PI3K-γ (Homo sapiens, UniProt P48736) for CN1CCN(c2ccc(Nc3nc(-c4ccc(NC(=O)Nc5ccc(C(N)=O)cc5)cc4)nc(N4CC5CCC(C4)O5)n3)cc2)CC1
Result: 6.17

----------
target: PI3K-α (Homo sapiens, UniProt P42336); experiment: PI3K-alpha fluorescence polarization assay; details: read-out: IC50 PI3Kα
Sequence (P42336 whole entry, species assumed): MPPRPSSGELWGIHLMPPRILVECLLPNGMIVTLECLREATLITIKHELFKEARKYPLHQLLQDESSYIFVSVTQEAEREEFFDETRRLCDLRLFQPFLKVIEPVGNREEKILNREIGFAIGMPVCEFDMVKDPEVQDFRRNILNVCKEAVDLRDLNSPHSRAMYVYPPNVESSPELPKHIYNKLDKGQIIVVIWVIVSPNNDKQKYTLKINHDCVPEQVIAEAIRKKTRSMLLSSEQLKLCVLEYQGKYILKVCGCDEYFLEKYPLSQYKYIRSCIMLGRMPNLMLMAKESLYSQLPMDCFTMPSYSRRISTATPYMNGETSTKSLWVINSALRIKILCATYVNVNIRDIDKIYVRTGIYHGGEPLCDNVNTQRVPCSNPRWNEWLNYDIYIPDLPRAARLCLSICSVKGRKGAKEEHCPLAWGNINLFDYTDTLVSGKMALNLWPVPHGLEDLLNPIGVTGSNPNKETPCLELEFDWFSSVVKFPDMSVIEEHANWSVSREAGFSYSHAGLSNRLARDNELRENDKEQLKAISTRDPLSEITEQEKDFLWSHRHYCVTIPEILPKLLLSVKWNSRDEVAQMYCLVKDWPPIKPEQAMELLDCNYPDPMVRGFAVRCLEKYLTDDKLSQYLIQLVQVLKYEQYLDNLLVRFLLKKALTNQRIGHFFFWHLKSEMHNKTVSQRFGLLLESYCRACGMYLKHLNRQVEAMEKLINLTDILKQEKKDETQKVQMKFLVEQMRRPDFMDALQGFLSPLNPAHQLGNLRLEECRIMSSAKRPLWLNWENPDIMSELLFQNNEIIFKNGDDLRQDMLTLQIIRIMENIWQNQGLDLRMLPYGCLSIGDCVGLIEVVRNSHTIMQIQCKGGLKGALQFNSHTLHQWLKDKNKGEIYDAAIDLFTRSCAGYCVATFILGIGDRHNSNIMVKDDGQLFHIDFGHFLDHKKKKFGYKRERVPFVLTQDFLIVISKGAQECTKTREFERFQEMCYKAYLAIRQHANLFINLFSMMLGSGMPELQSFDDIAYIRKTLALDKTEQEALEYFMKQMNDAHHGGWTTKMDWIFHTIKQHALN
Sequence (P27986 whole entry partner, species assumed): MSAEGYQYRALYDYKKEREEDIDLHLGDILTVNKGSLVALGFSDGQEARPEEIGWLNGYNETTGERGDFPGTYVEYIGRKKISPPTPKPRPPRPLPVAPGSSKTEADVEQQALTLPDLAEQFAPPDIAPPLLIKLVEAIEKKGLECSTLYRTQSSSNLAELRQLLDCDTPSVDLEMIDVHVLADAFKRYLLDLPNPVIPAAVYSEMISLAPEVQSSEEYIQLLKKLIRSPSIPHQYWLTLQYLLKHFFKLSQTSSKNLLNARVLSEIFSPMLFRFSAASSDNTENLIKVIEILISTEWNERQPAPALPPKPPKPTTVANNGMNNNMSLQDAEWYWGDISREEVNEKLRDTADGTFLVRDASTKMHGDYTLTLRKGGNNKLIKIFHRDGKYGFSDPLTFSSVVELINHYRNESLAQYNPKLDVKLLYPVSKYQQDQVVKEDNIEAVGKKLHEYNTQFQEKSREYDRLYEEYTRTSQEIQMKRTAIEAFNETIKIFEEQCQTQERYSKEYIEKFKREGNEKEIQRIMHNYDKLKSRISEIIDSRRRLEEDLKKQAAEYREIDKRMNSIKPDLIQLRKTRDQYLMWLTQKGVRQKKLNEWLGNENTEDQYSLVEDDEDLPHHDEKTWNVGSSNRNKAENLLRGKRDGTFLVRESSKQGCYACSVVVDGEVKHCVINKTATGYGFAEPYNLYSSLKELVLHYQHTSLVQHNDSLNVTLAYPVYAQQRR
pIC50: −log10 of the molar value.
Please use Condition met whenever pIC50 is not below 7, and Condition not met whenever it is.

Worked set:
| smiles.record | cat |
| --- | --- |
| NCCNc1nc(-c2ccc(NC(=O)Nc3cccnc3)cc2)nc(N2CC3CCC(C2)O3)n1 | Condition not met |
| CC(=O)NC1CCN(c2nc(-c3ccc(NC(=O)Nc4ccc(C(=O)O)cc4)cc3)nc(N3CCOCC3)n2)CC1 | Condition not met |
| CN(C)C1CCN(C(=O)c2ccc(NC(=O)Nc3ccc(-c4nc(C5=CCOCC5)nc(N5CCOCC5)n4)cc3)cc2)CC1 | Condition met |
| CCN1CCN(c2ccc(NC(=O)Nc3ccc(-c4nc(C5CCOCC5)nc(N5CCOC[C@H]5C)n4)cc3)cc2)CC1 | Condition not met |
| C[C@@H]1COCCN1c1nc(-c2ccc(NC(=O)Nc3ccc(CN(C)C)cc3)cc2)nc(N2CCOC[C@H]2C)n1 | Condition not met |
| CN(C)C1CCN(C(=O)c2ccc(NC(=O)Nc3ccc(-c4nc(NS(=O)(=O)c5ccccc5)nc(N5CCOCC5)n4)cc3)cc2)CC1 | Condition met |
| O=C(CN1CCCC1)Nc1ccc(NC(=O)Nc2ccc(-c3nc(N4C5CCC4COC5)nc(N4C5CCC4COC5)n3)cc2)cc1 | Condition met |
| C[C@@H](CO)Nc1nc(-c2ccc(NC(=O)Nc3cccnc3)cc2)nc(N2CC3CCC(C2)O3)n1 | Condition not met |
| O=C(Nc1ccc(C(=O)N2CCC(N3CCCC3)CC2)cc1)Nc1ccc(-c2nc(N3CCOCC3)nc(N3C4CCCC3COC4)n2)cc1 | Condition met |
| CN(C)C1CCN(C(=O)c2ccc(NC(=O)Nc3ccc(-c4nc(N5CCOCC5)nc(N5C6CCCC5COC6)n4)cc3)cc2)CC1 | Condition met |

Query: Threshold query (pIC50 >= 7) on O=C(Nc1ccncc1)Nc1ccc(-c2nc(N3CCC3)nc(N3CCOCC3)n2)cc1
Result: Condition met

Query: Another compound to look at: C[C@@H]1COCCN1c1nc(-c2ccc(NC(=O)Nc3ccc(OCCN(C)C)cc3)cc2)nc(N2CCOC[C@H]2C)n1
Result: Condition not met

----------
target: Human mTOR (FLAG-TOR) (Homo sapiens, UniProt P42345); experiment: mTOR kinase assay (DELFIA format, purified enzyme); format: biochemical; settings: read-out: IC50 mTOR
assay.endpoint: IC50 (nM)
Give bare numbers, in nM.

| smiles.record | subject.of.test | IC50 (nM) |
| --- | --- | --- |
| CN1CCN(C(=O)c2ccc(NC(=O)Nc3ccc(-c4nc(NS(=O)(=O)c5ccccc5)nc(N5CCOCC5)n4)cc3)cc2)CC1 | Human mTOR (FLAG-TOR) (Homo sapiens, UniProt P42345) | 88 |

State recorded IC50 for all listed molecules.
1. CC(C)N(C)c1nc(-c2ccc(NC(=O)Nc3ccc(CN(C)C)cc3)cc2)nc(N2C3CCC2COC3)n1
2. O=C(Nc1ccc(-c2nc(OC3CCOCC3)nc(N3CCOCC3)n2)cc1)Nc1cccnc1
3. CCCCN1CCN(C(=O)c2ccc(NC(=O)Nc3ccc(-c4nc(N5CCOCC5)nc(N5CCCN(C(C)C)CC5)n4)cc3)cc2)CC1
4. O=C(CN1CCCC1)Nc1ccc(NC(=O)Nc2ccc(-c3nc(N4C5CCC4COC5)nc(N4C5CCC4COC5)n3)cc2)cc1
5. CCNC(=O)N1CCC(Oc2nc(-c3ccc(NC(=O)Nc4ccncc4)cc3)nc(N3CCOCC3)n2)CC1
6. O=C(Nc1ccc(C(=O)N2CCOCC2)cc1)Nc1ccc(-c2nc(N3CCOCC3)nc(N3CCOCC3)n2)cc1

Result:
12
0.76
445
0.15
0.525
2

----------
I'd be grateful if you could share measured pIC50 for these entries.
target: PI3K-γ (Homo sapiens, UniProt P48736); test: PI3K-gamma fluorescence polarization assay; details: read-out: IC50 PI3Kγ
Give bare numbers, as −log10 of the molar value.

Reference set (3 entries):
| compound | pIC50 |
| --- | --- |
| O=C(Nc1ccc(-c2nc(N3CCOCC3)nc(N3C4CCC3COC4)n2)cc1)Nc1ccnnc1 [Example 483] | 6.82 |
| COCC(COC)Oc1nc(-c2ccc(NC(=O)Nc3ccncc3)cc2)nc(N2CC3CCC(C2)O3)n1 [Example 174] | 6.14 |
| C[C@@H]1COCCN1c1nc(-c2ccc(NC(=O)Nc3cccnc3)cc2)nc(N2C3CCC2COC3)n1 [Example 415] | 5.49 |

Query: Give its pIC50 value. Item: CCCN1CCN(C(=O)c2ccc(NC(=O)Nc3ccc(-c4nc(N5CCOC[C@@H]5C)nc(N5CCOC[C@@H]5C)n4)cc3)cc2)CC1 [Example 638]
Result: 6.95
